system: SN12C; assay: Anticancer activity against human SN12C cells assessed as cell growth promotion at 10^-5 M after 48 hrs by SRB assay relative to control; format: functional
measuredAttribute: Activity (%)
Use % as the unit, but write only the number.

{"smilesData": "CN(C)c1ccc(/C=C/c2nc3ccccc3nc2SCc2nc3ccccc3[nH]2)cc1", "targetEntity": "SN12C", "experimentalValue": 100}
{"smilesData": "N#Cc1ccc(/C=C/c2ccc(NC(=O)c3ccccc3NC(=O)c3ccco3)cc2)cc1", "targetEntity": "SN12C", "experimentalValue": 104}
{"smilesData": "O=C(Nc1ccccc1C(=O)Nc1ccc(/C=C/C=C/c2ccccc2)cc1)c1ccccc1", "targetEntity": "SN12C", "experimentalValue": 87.79}

Can you look up the measured Activity of NS(=O)(=O)c1ccc(NC(=O)c2ccccc2NC(=O)c2ccco2)cc1 for me?
105

// repeat for Oc1ccc(/C=C/c2nc3ccccc3nc2SCc2nc3ccccc3[nH]2)cc1 and report
94.78

Same for O=c1c2ccccc2nc(-c2ccco2)n1O
98.6

Consider next the molecule O=c1c2ccccc2nc(-c2ccco2)n1/N=C/c1ccccc1Cl in the same way.
36.81

---

system: HOP-62; assay: Anticancer activity against human HOP62 cells assessed as cell growth promotion at 10^-5 M after 48 hrs by SRB assay relative to control; type: functional
measuredAttribute: Activity (%)
The figure you give is taken to be in %; do not add the unit.

Name the recorded Activity for Brc1cccc(/C=C/c2nc3ccccc3nc2SCc2nc3ccccc3[nH]2)c1 .
97.73

Would you mind doing N#Cc1ccc(/C=C/c2ccc(NC(=O)c3ccccc3NC(=O)c3ccco3)cc2)cc1 as well?
111

Queued: Oc1ccccc1/C=C/c1nc2ccccc2nc1SCc1nc2ccccc2[nH]1
73.71

---

List of Activity values.
test system: HCC 2998; experiment: Anticancer activity against human HCC2998 cells assessed as cell growth promotion at 10^-5 M after 48 hrs by SRB assay relative to control; assay type: functional

Look up Activity with HCC 2998 for this compound: O=c1c2ccccc2nc(-c2ccco2)n1O
119.5%

---

tested on: TK-10; test: Anticancer activity against human TK10 cells assessed as cell growth promotion at 10^-5 M after 48 hrs by SRB assay relative to control; type: functional
measuredAttribute: Activity (%)
Response body: numeric value in %, unit text excluded.

{"smilesData": "Oc1ccc(/C=C/c2nc3ccccc3nc2SCc2nc3ccccc3[nH]2)cc1", "Activity, %": 107}

Here's the next entry for you.
Return reported Activity; argument: Brc1cccc(/C=C/c2nc3ccccc3nc2SCc2nc3ccccc3[nH]2)c1
103

---

// reported Activity for each item listed
system: A498; experiment: Anticancer activity against human A498 cells assessed as cell growth promotion at 10^-5 M after 48 hrs by SRB assay relative to control; format: functional
Write down the numeric answer in % and omit the unit.

{"smilesData": "COc1ccc(OC)c(/C=C/c2nc3ccccc3nc2SCc2nc3ccccc3[nH]2)c1", "targetEntity": "A498", "experimentalValue": 95.89}
{"smilesData": "O=c1c2ccccc2nc(-c2ccco2)n1/N=C/c1ccccc1Cl", "targetEntity": "A498", "experimentalValue": 36.82}
{"smilesData": "Oc1ccc(/C=C/c2nc3ccccc3nc2SCc2nc3ccccc3[nH]2)cc1", "targetEntity": "A498", "experimentalValue": 88.72}
{"smilesData": "N#Cc1ccc(/C=C/c2nc3ccccc3nc2SCc2nc3ccccc3[nH]2)cc1", "targetEntity": "A498", "experimentalValue": 105}
{"smilesData": "O=C(O)c1ccc(-n2c(-c3ccco3)nc3ccccc3c2=O)cc1", "targetEntity": "A498", "experimentalValue": 106.88}
{"smilesData": "O=C(Nc1ccccc1C(=O)Nc1ccc(/C=C/c2ccc(Cl)cc2)cc1)c1ccco1", "targetEntity": "A498", "experimentalValue": 69.42}

So what does the record say about Activity for O=c1c2ccccc2nc(-c2ccco2)n1O ?
97.65

Also check Oc1ccccc1/C=C/c1nc2ccccc2nc1SCc1nc2ccccc2[nH]1
92.56

Here is the next compound: O=C(Nc1ccccc1C(=O)Nc1ccc(/C=C/c2ccc(O)cc2)cc1)c1ccccc1
85.08

Okay, and NS(=O)(=O)c1ccc(NC(=O)c2ccccc2NC(=O)c2ccco2)cc1 ?
-23

These measurements were taken from ChEMBL document CHEMBL1781959.
